Documented log10 Koc (L/kg) across a set of compounds
READOUT KIND: log10 Koc (L/kg)

| COMPOUND | READOUT KIND | MEASURED |
| --- | --- | --- |
| Cc1cc(C)cc(O)c1 | log10 Koc (L/kg) | 2.83 |
| CC(=O)Nc1cccc(C(F)(F)F)c1 | log10 Koc (L/kg) | 1.75 |
| Oc1cc(Cl)cc(Cl)c1 | log10 Koc (L/kg) | 2.83 |
| CCN(CC)c1c([N+](=O)[O-])cc(C(F)(F)F)c(N)c1[N+](=O)[O-] | log10 Koc (L/kg) | 3.63 |
| O=c1[nH]c2c(c(=O)n1C1CCCCC1)CCC2 | log10 Koc (L/kg) | 2.14 |
| CCc1c(Br)c(Br)c(Br)c(Br)c1Br | log10 Koc (L/kg) | 4.92 |
| CC(Oc1ccc(Cl)cc1Cl)C(=O)O (stereo not drawn) | log10 Koc (L/kg) | 2.23 |
| Clc1cc(Cl)c(-c2c(Cl)cc(Cl)cc2Cl)c(Cl)c1 | log10 Koc (L/kg) | 6.08 |
| CCS(=O)(=O)c1cccnc1S(=O)(=O)NC(=O)Nc1nc(OC)cc(OC)n1 | log10 Koc (L/kg) | 1.71 |
| CCCCOC(=O)c1ccccc1C(=O)OCCCC | log10 Koc (L/kg) | 3.14 |
| c1ccc2nc3ccccc3nc2c1 | log10 Koc (L/kg) | 3.37 |
| CCSC(=O)N(CC)C1CCCCC1 | log10 Koc (L/kg) | 2.54 |
| CC(=O)Nc1cccc([N+](=O)[O-])c1 | log10 Koc (L/kg) | 1.94 |

###

// reported log10 biotransformation half-life (days) for each item listed
- MEASUREMENT PARAMETERS: fish

| COMPOUND | log10 biotransformation half-life (days) |
| --- | --- |
| CCOP(=O)(OCC)OCC | -1.09 |
| Clc1ccc(Oc2ccc(Cl)cc2Cl)c(Cl)c1 | 2.28 |
| Clc1cc(Cl)c(-c2c(Cl)c(Cl)cc(Cl)c2Cl)c(Cl)c1Cl | 2.46 |
| Clc1ccc(Cl)c(-c2cccc(Cl)c2Cl)c1 | 2.33 |
| CCCCOCCCC | -0.25 |
| Clc1cccc(-c2cccc(Cl)c2Cl)c1Cl | 2 |
| Cc1cc(O)ccc1Cl | -1.28 |
| Clc1ccc(Cl)c(-c2cc(Cl)c(Cl)cc2Cl)c1 | 2.46 |
| CNc1cccc(C)c1 | -0.79 |
| CC(C)(C)C(O)(CCc1ccc(Cl)cc1)Cn1cncn1 (centres undefined) | 0.77 |
| COP(=O)(OC)OC(=CCl)c1cc(Cl)c(Cl)cc1Cl | -1.02 |
| Clc1cc(Cl)c2c(c1Cl)Oc1ccccc1O2 | 0.43 |
| c1ccc2c(c1)oc1ccccc12 | 1.35 |
| CC(C)CC1CCCCC1 | 0.91 |

###

Below: a set of entries, each annotated with reported boiling point.

| COMPOUND | UNIT ABBREVIATION | boiling point |
| --- | --- | --- |
| c1ccc2c(c1)ccc1cc3c(ccc4ccccc43)cc12 | °C | 524 |
| CCOC(=O)C(C)C | °C | 110 |
| CC(C)(C)OC(C)(C)C | °C | 107 |
| C=COC(=O)C(C)C | °C | 104 |
| Nc1ccccc1C(F)(F)F | °C | 187 |
| N#Cc1ccccn1 | °C | 224 |
| CC(C)C1CCC(C)(O)CC1 (centres undefined) | °C | 208 |
| C=C(C)C(=O)OC | °C | 100 |
| Clc1ccc(Cl)cc1 | °C | 174 |
